- Assay notes: soluble on expression in E. coli; label from the status in PepcDB or PDB records
Assay readout: soluble on expression in E. coli

Input sequence	Result
AHHHHHHGSGASPVIVPVRCFTCGKVIGDKYYEFKRRVEAGEDPEKVLDDLGLERYCCRRMLLSHVELIDDIMHYRVY	not soluble
MGSDKIHHHHHHMMLSVSLAALRTFVEVARLRSFKDAAQSLGVTSGAVSQQVKLVENRLDVTLFERSGRNVKLTEQGLRLLGAIHVPFEQIREAVEDFDRRRSARNVVRIVTPIALASHWLVPRMDRFSRRHPDIELHIDTAHAEGVRRQLFDIAIQYGNETAPGVEAKRLPSSKLVVVGSPQLLEGASPIRDPSDCLKFPLLHDHDRLNWPAWFRANGSTHLPAASRKGLSFADESLLVAAAAAAQGLALVRDIHAENLLLHGRLKIAIETSMEPFQSYYLLTPSLVSQRPVVDACKNWILSEMARPVFLDLLSRP	not soluble
